Each entry below lists one item and its recorded self-cleavage kobs at 2500 uM GlcN6P value.
B1: glmS ribozyme (parent)
chain: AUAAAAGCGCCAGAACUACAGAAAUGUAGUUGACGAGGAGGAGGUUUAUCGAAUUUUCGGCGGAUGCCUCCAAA

- Variants of: B1
- protocol_text: self-cleavage kobs at 2500 uM GlcN6P; higher = faster cleavage; RNA array
- particulars: with glucosamine-6-phosphate
This sample holds only a part of the variants without activity.
Just the number please, in s⁻¹, no unit attached.

Query: Which self-cleavage kobs at 2500 uM GlcN6P reading was recorded for the variant A12C G26U ?
Response: 0.00321
